system under test: T1, Human BSSL (bile salt-stimulated lipase), native (human, UniProt P19835 21-753)
T1 sequence: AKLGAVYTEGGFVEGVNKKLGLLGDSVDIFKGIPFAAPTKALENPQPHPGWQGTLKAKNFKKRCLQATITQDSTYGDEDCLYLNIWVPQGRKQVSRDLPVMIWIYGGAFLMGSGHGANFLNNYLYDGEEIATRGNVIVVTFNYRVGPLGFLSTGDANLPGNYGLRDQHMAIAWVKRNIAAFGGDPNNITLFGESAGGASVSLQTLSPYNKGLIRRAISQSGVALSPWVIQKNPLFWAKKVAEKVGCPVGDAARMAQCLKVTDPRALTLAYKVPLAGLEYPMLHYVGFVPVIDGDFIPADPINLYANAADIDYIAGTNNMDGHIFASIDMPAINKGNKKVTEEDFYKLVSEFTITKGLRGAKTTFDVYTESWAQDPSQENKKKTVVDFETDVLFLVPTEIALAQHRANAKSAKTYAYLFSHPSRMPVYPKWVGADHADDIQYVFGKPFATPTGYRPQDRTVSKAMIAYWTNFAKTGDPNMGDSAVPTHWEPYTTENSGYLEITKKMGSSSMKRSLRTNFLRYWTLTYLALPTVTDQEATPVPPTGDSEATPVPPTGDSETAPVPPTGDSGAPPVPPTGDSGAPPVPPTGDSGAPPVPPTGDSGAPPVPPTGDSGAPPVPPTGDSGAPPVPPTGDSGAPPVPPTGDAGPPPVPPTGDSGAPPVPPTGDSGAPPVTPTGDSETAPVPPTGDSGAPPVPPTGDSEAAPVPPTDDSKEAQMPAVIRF
measurement description: cell-based or functional assay
measurement type: BSSL hydrolysis of triglycerides, relative value (no antibody = 100%); 0.19 ug antibody
Write it as a number; the unit % goes unstated.

Field: example entries. Status: answers known.
binder: S-SL048-106 hIgG4 S228P (antibody, V domains shown, also called mAb106) VH: QVQLVQSGAEVKKPGASVKVSCKASGYTFTSYNMHWVRQAPGQGLEWIGVIYPGDGSTSYNQKFQGRVTMTRDTSTSTVYMELSSLRSEDTAVYYCARDYYGSSPLGYWGQGTLVTVSS VL: DIQMTQSPSSLSASVGDRVTITCSASSSISYMNWYQQKPGKAPKLLIYATSKLPSGVPSRFSGSGSGTDFTLTISSLQPEDFATYYCHQRSSTPTFGQGTKLEIKR
meas value: 109

binder: S-SL048-46 hIgG4 S228P (antibody, V domains shown, also called clone 46; mAb46) VH: QVQLVQSGAEVKKPGASVKVSCKASGYTFTSYNMHWVRQAPGQGLEWMGVINPGDGATSYNQKFQGRVTMTRDTSTSTVYMELSSLRSEDTAVYYCARDYYGSSPLGYWGQGTLVTVSS VL: DIQMTQSPSSLSASVGDRVTITCRASSSISYLNWYQQKPGKAPKLLIYAASSLASGVPSRFSGSGSGTDFTLTISSLQPEDFATYYCHQRSSSPTFGQGTKLEIKR
meas value: 105

binder: S-SL048-118 hIgG4 S228P (antibody, V domains shown, also called clone 118; mAb118) VH: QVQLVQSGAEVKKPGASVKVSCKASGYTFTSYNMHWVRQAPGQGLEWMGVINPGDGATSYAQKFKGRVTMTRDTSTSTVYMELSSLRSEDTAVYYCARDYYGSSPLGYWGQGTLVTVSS VL: DIQMTQSPSSLSASVGDRVTITCSASPSISYMNWYQQKPGKAPKLLIYATSSLPSGVPSRFSGSGSGTDFTLTISSLQPEDFATYYCHQRSSSPTFGQGTKLEIKR
meas value: 107

Which BSSL hydrolysis of triglycerides, relative value (no antibody = 100%); 0.19 ug antibody is listed for S-SL048-116 hIgG4 S228P (antibody, V domains shown, also called mAb116) VH: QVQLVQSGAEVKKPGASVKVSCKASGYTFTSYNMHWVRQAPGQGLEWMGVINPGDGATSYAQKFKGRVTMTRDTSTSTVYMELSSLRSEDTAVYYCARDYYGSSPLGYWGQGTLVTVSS VL: DIQMTQSPSSLSASVGDRVTITCRASPSISYMNWYQQKPGKAPKLLIYATSSLASGVPSRFSGSGSGTDFTLTISSLQPEDFATYYCHQRSSSPTFGQGTKLEIKR ?
105
